Data origin, for the record: patent US11173151B2

# target_desc: UniProt:P37288
# Sequence (P37288 whole entry): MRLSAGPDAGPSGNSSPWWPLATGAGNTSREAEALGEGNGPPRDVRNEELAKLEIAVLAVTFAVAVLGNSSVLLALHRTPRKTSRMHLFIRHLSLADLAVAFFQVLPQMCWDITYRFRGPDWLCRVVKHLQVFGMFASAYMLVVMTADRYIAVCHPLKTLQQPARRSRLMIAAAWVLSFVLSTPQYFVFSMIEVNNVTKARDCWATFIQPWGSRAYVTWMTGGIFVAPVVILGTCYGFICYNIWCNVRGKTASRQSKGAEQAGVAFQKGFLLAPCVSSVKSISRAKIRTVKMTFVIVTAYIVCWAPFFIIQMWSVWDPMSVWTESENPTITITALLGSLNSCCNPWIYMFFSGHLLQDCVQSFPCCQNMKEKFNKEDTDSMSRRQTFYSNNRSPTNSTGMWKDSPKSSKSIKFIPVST
# assay_protocol: Cellular in vitro assay for determining vasopressin receptor activity, V1a receptor cell line (CHO, aequorin luminescence)
# recorded_conditions: CHO cell line transfected with human V1a receptor; [Arg]-vasopressin at EC50 concentration; read-out: IC50 hV1a
property_name: IC50 (nM)

Before answering, review these 8 worked examples.
compound="O=C(Nc1ccccc1Cl)c1ccccc1-n1cnc(Cn2nc(-c3ccc(Cl)cc3)n(C[C@H](O)C(F)(F)F)c2=O)n1 [Example 258]" target_desc=UniProt:P37288 scale_unit=nM obs_value=1.9
compound="Cc1cc(NC(=O)c2ccccc2-n2cnc(Cn3nc(-c4ccc(Cl)cc4)n(C[C@H](O)C(F)(F)F)c3=O)n2)ccn1 [Example 254]" target_desc=UniProt:P37288 scale_unit=nM obs_value=2.25
compound="Cc1cc(NC(=O)c2ccccc2-n2cnc(Cn3nc(-c4ccc(Cl)cc4)n(C[C@H](O)C(F)(F)F)c3=O)n2)cnc1F [Example 250]" target_desc=UniProt:P37288 scale_unit=nM obs_value=4.45
compound="CN1CCC(N(C)C(=O)c2ccccc2-n2cnc(Cn3nc(-c4ccc(Cl)cc4)n(C[C@H](O)C(F)(F)F)c3=O)n2)C1 (mixture of isomers) [Example 274]" target_desc=UniProt:P37288 scale_unit=nM obs_value=22
compound="CC(C)(C)CNC(=O)c1ccccc1-n1cnc(Cn2nc(-c3ccc(Cl)cc3)n(C[C@H](O)C(F)(F)F)c2=O)n1 [Example 322]" target_desc=UniProt:P37288 scale_unit=nM obs_value=2.65
compound="O=C(NCC(F)(F)F)c1cc(Cl)ccc1-n1cnc(Cn2nc(-c3ccc(Cl)cc3)n(C[C@H](O)C(F)(F)F)c2=O)n1 [Example 427]" target_desc=UniProt:P37288 scale_unit=nM obs_value=21
compound="Cc1c(F)cccc1NC(=O)c1ccccc1-n1cnc(Cn2nc(-c3ccc(Cl)cc3)n(C[C@H](O)C(F)(F)F)c2=O)n1 [Example 306]" target_desc=UniProt:P37288 scale_unit=nM obs_value=1.6
compound="O=C(NCc1ccccn1)c1ccccc1-n1cnc(Cn2nc(-c3ccc(Cl)cc3)n(C[C@H](O)C(F)(F)F)c2=O)n1 [Example 301]" target_desc=UniProt:P37288 scale_unit=nM obs_value=8.75

(1) CN1CCN(C(=O)c2ccccc2-n2cnc(Cn3nc(-c4ccc(Cl)cc4)n(C[C@H](O)C(F)(F)F)c3=O)n2)CC1 [Example 357]
(2) Cc1cccc(C(=O)Nc2ncccc2-n2cnc(Cn3nc(-c4ccc(Cl)cc4)n(C[C@H](O)C(F)(F)F)c3=O)n2)c1 [Example 162]
(3) CC1(NC(=O)c2cccnc2-n2nc(Cn3nc(-c4ccc(Cl)cc4)n(C[C@H](O)C(F)(F)F)c3=O)nc2C(=O)N2CCS(=O)(=O)CC2)CC1 [Example 531]
(4) O=C1CN(C(=O)c2ccccc2-n2cnc(Cn3nc(-c4ccc(Cl)cc4)n(C[C@H](O)C(F)(F)F)c3=O)n2)CCN1 [Example 171]
(5) O=C(c1ccccc1-n1cnc(Cn2nc(-c3ccc(Cl)cc3)n(C[C@H](O)C(F)(F)F)c2=O)n1)N1CCOCC1 [Example 172]
**Query** Provide the items ranked by increasing IC50. Response format: the labels, sorted as the prompt asks.
**Result** 5, 1, 3, 4, 2
(5: 3.25 nM, 1: 33 nM, 3: 96.5 nM, 4: 139 nM, 2: 300 nM)
